# study target: human V1a receptor (Homo sapiens)
# Construct: expressed in transfected cells; host or cells: HEK293 cells, transiently transfected; cell membranes
# Sequence (P37288 whole entry): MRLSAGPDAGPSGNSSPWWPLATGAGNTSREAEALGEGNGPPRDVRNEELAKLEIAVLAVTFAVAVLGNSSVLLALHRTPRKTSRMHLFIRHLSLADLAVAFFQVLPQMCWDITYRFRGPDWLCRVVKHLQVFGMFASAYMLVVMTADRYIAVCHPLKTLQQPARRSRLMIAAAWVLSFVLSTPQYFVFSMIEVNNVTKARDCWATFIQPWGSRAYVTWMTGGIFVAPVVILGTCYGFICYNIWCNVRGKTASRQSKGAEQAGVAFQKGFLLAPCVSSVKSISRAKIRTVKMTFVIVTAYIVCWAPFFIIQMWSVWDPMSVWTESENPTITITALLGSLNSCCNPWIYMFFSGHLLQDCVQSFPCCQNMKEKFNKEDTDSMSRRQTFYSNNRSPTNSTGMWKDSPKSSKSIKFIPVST
# assay name: human V1a receptor binding studies (3H-Vasopressin, SPA beads)
# details: membranes from HEK293 cells transiently transfected with human V1a receptor, Ki calculated from IC50 by the Cheng-Prussoff equation, read-out: pKi (hV1a) (converted)
Ki less than 10 nM is rule met; Ki greater than or equal to 10 nM is rule not met.

The following molecules have reported results that may help.
{"columns": ["structure smiles string", "class"],
 "data": [
  ["Clc1ccc2c(c1)CNCc1nnc([C@H]3CC[C@H](c4cccc(Cl)n4)CC3)n1-2", "rule met"],
  ["CN1Cc2cc(Cl)ccc2-n2c(nnc2[C@H]2CC[C@H](c3cccnc3Cl)CC2)C1", "rule not met"],
  ["CN1Cc2cc(Cl)ccc2-n2c(nnc2[C@H]2CC[C@H](c3cccnn3)CC2)C1", "rule met"],
  ["Cc1cnc(C)c([C@H]2CC[C@H](c3nnc4n3-c3ccc(Cl)cc3CN(C(=O)OC(C)(C)C)C4)CC2)n1", "rule met"]
]}

Task: I'd appreciate it if you could check whether Cc1cncc([C@H]2CC[C@H](c3nnc4n3-c3ccc(Cl)cc3CN(C(=O)OC(C)(C)C)C4)CC2)n1 has Ki smaller than 10 nM.
Output: rule met

Task: I'd appreciate it if you could check whether CN1Cc2cc(Cl)ccc2-n2c(nnc2[C@H]2CC[C@@H](c3ncccc3F)CC2)C1 has Ki smaller than 10 nM.
Output: rule not met

Task: Hello, I'm reviewing records and need to know if Ki of Cc1nccc([C@H]2CC[C@H](c3nnc4n3-c3ccc(Cl)cc3CN(C)C4)CC2)n1 is below 10 nM. Could you check?
Output: rule not met
